Target: hAM2 receptor (CALCRL:RAMP3) (Homo sapiens, UniProt O60896+Q16602)
Construct: expressed in transfected cells; host or cells: GeneBLAzer CALCRL:RAMP3-CRE-bla Freestyle 293F
Sequence (Q16602 23-461): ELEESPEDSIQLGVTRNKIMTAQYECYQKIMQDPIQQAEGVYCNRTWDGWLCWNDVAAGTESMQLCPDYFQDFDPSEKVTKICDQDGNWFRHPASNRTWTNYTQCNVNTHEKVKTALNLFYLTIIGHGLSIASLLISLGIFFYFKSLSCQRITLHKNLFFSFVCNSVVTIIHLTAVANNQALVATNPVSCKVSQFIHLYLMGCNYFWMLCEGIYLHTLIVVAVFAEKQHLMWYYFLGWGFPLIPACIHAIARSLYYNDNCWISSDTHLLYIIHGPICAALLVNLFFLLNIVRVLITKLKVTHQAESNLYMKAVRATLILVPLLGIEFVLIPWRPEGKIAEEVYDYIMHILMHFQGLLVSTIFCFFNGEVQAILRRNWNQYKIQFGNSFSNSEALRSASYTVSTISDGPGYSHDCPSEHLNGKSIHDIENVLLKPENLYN
Sequence (O60896 24-148): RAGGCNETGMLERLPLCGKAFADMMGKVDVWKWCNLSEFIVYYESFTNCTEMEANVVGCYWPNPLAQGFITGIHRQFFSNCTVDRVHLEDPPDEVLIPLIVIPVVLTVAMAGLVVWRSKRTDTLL
Experiment: AM2 receptor antagonist activity measured by cAMP assay (HTRF)
Type: cell-based
Details: selectivity ratio for hCGRP over hAM2, calculated from the IC50 values
Numbered stars: 1 amine (or outer) side, 2 acyl side, 3 side chain; on linkers, the order of the positions; unused ones are H or OH. Bridge positions count the residues as written; N and C are the ends. Square brackets hold non-standard residues; d marks the D form. Peptide text beside a SMILES is read from it. * marks the point of attachment. Phe(3-CH2NH2) = O=C([C@H](Cc1cccc(CN[*:3])c1)N[*:1])[*:2]; Phe(3-CONH2) = NC(=O)c1cccc(C[C@H](N)C(=O)O)c1; Phe(2-CONH2) = NC(=O)c1ccccc1C[C@H](N)C(=O)O; X5 = O=C([C@H](Cc1ccc(CO)cc1)N[*:1])[*:2]; Picolinoyl(3,5-F2) = O=C(c1ncc(F)cc1F)*; Picolinoyl(5-F) = O=C(c1ccc(F)cn1)*; Lys(Me2) = CN(C)CCCC[C@H](N)C(=O)O; Orn(iPr) = CC(C)NCCC[C@H](N)C(=O)O; Dab(iPr) = CC(C)NCC[C@H](N)C(=O)O; Benzoyl(4-F) = O=C(c1ccc(F)cc1)*; Oxazole2carbonyl = O=C(c1ncco1)*; 3Pal = N[C@@H](Cc1cccnc1)C(=O)O; Pyrrole2CO = O=C(c1ccc[nH]1)*; Picolinoyl = O=C(c1ccccn1)*; ΔPro = O=C(O)[C@@H]1C=CCN1; Orn = NCCC[C@H](N)C(=O)O; X11 = O=C(c1ncccc1Cl)*; X1 = O=C(c1ncccc1F)*; X6 = O=C(c1ccncn1)*
measurementType: selectivity ratio CGRP/AM2
Lab note: record just the number, no unit beside it.

QUERY: Output reported selectivity ratio CGRP/AM2 of the compound CC(C)[C@@H]1NC(=O)[C@H](CC(=O)O)NC(=O)[C@H](CCCNC(=O)[C@@H](N)CCCCN(C)C)NC(=O)[C@@H](NC(=O)[C@H](Cc2ccc(O)cc2)NC(=O)[C@H](NC(=O)c2ccncn2)C(C)C)CSSC[C@@H](C(=O)N[C@@H](Cc2cccnc2)C(N)=O)NC(=O)[C@H](Cc2ccccc2)NC(=O)[C@@H]2CCCN2C(=O)CNC1=O [Compound 45] (X6-[dV]YC[Orn](Lys(Me2))DVGPFC[3Pal]-NH2; disulfide 3-10) on hAM2 receptor (CALCRL:RAMP3) (Homo sapiens, UniProt O60896+Q16602).
RESULT: 1082

QUERY: Output reported selectivity ratio CGRP/AM2 of the compound CC(C)NCCC[C@@H]1NC(=O)[C@@H](NC(=O)[C@H](Cc2ccc(O)cc2)NC(=O)[C@H](NC(=O)c2ncco2)C(C)C)CSSC[C@@H](C(=O)N[C@@H](Cc2cccnc2)C(N)=O)NC(=O)[C@H](Cc2cccc(C(N)=O)c2)NC(=O)[C@@H]2C=CCN2C(=O)CNC(=O)[C@H](C(C)C)NC(=O)[C@H](CC(=O)O)NC1=O [Compound 67] (Oxazole2carbonyl-[dV]YC[Orn(iPr)]DVG[ΔPro][Phe(3-CONH2)]C[3Pal]-NH2; disulfide 3-10) on hAM2 receptor (CALCRL:RAMP3) (Homo sapiens, UniProt O60896+Q16602).
RESULT: 1094

QUERY: Output reported selectivity ratio CGRP/AM2 of the compound CC(C)NCCC[C@@H]1NC(=O)[C@@H](NC(=O)[C@H](Cc2ccc(O)cc2)NC(=O)[C@H](NC(=O)c2ncc(F)cc2F)C(C)C)CSSC[C@@H](C(=O)N[C@@H](Cc2cccnc2)C(N)=O)NC(=O)[C@H](Cc2ccccc2)NC(=O)[C@@H]2CCCN2C(=O)CNC(=O)[C@H](C(C)C)NC(=O)[C@H](CC(=O)O)NC1=O [Compound 62] ({Picolinoyl(3,5-F2)}-[dV]YC[Orn(iPr)]DVGPFC[3Pal]-NH2; disulfide 3-10) on hAM2 receptor (CALCRL:RAMP3) (Homo sapiens, UniProt O60896+Q16602).
RESULT: 592

QUERY: Output reported selectivity ratio CGRP/AM2 of the compound CC(C)[C@@H]1NC(=O)[C@H](CC(=O)O)NC(=O)[C@H](CCCNC(=N)N)NC(=O)[C@@H](NC(=O)[C@H](Cc2ccccc2C(N)=O)NC(=O)[C@H](NC(=O)c2ncccc2F)C(C)C)CSSC[C@@H](C(=O)N[C@@H](Cc2cccnc2)C(N)=O)NC(=O)[C@H](Cc2cccc(CN)c2)NC(=O)[C@@H]2C=CCN2C(=O)CNC1=O [Compound 32] (X1-[dV][Phe(2-CONH2)]CRDVG[ΔPro][Phe(3-CH2NH2)]C[3Pal]-NH2; disulfide 3-10) on hAM2 receptor (CALCRL:RAMP3) (Homo sapiens, UniProt O60896+Q16602).
RESULT: 498

QUERY: Output reported selectivity ratio CGRP/AM2 of the compound CC(C)[C@@H]1NC(=O)[C@H](CC(=O)O)NC(=O)[C@H](CCCNC(=N)N)NC(=O)[C@@H](NC(=O)[C@H](Cc2ccc(O)cc2)NC(=O)[C@H](NC(=O)c2ccc(F)cc2)C(C)C)CSSC[C@@H](C(=O)N[C@@H](Cc2cccnc2)C(N)=O)NC(=O)[C@H](Cc2cccnc2)NC(=O)[C@@H]2CCCN2C(=O)CNC1=O [Compound 2] ({Benzoyl(4-F)}-[dV]YCRDVGP[3Pal]C[3Pal]-NH2; disulfide 3-10) on hAM2 receptor (CALCRL:RAMP3) (Homo sapiens, UniProt O60896+Q16602).
RESULT: 555

QUERY: Output reported selectivity ratio CGRP/AM2 of the compound CC(C)NCCC[C@@H]1NC(=O)[C@@H](NC(=O)[C@H](Cc2ccccc2C(N)=O)NC(=O)[C@H](NC(=O)c2ncco2)C(C)C)CSSC[C@@H](C(=O)N[C@@H](Cc2cccnc2)C(N)=O)NC(=O)[C@H](Cc2ccc(O)cc2)NC(=O)[C@@H]2C=CCN2C(=O)CNC(=O)[C@H](C(C)C)NC(=O)[C@H](CC(=O)O)NC1=O [Compound 57] (Oxazole2carbonyl-[dV][Phe(2-CONH2)]C[Orn(iPr)]DVG[ΔPro]YC[3Pal]-NH2; disulfide 3-10) on hAM2 receptor (CALCRL:RAMP3) (Homo sapiens, UniProt O60896+Q16602).
RESULT: 5225

QUERY: Output reported selectivity ratio CGRP/AM2 of the compound CC(C)[C@@H]1NC(=O)[C@H](CC(=O)O)NC(=O)[C@H](CCCNC(=N)N)NC(=O)[C@@H](NC(=O)[C@H](Cc2ccc(O)cc2)NC(=O)[C@H](NC(=O)c2ncccc2Cl)C(C)C)CSSC[C@@H](C(=O)N[C@@H](Cc2cccnc2)C(N)=O)NC(=O)[C@H](Cc2ccccc2)NC(=O)[C@@H]2CCCN2C(=O)CNC1=O [Compound 51] (X11-[dV]YCRDVGPFC[3Pal]-NH2; disulfide 3-10) on hAM2 receptor (CALCRL:RAMP3) (Homo sapiens, UniProt O60896+Q16602).
RESULT: 92

QUERY: Output reported selectivity ratio CGRP/AM2 of the compound CC(C)NCCC[C@@H]1NC(=O)[C@@H](NC(=O)[C@H](Cc2ccc(O)cc2)NC(=O)[C@H](NC(=O)c2ccc(F)cn2)C(C)C)CSSC[C@@H](C(=O)N[C@@H](Cc2cccnc2)C(N)=O)NC(=O)[C@H](Cc2ccc(CO)cc2)NC(=O)[C@@H]2CCCN2C(=O)CNC(=O)[C@H](C(C)C)NC(=O)[C@H](CC(=O)O)NC1=O [Compound 61] ({Picolinoyl(5-F)}-[dV]YC[Orn(iPr)]DVGP[X5]C[3Pal]-NH2; disulfide 3-10) on hAM2 receptor (CALCRL:RAMP3) (Homo sapiens, UniProt O60896+Q16602).
RESULT: 934

QUERY: Output reported selectivity ratio CGRP/AM2 of the compound CC(C)NCC[C@@H]1NC(=O)[C@@H](NC(=O)[C@H](Cc2ccc(O)cc2)NC(=O)[C@H](NC(=O)c2ccccn2)C(C)C)CSSC[C@@H](C(=O)N[C@@H](Cc2cccnc2)C(N)=O)NC(=O)[C@H](Cc2ccccc2)NC(=O)[C@@H]2CCCN2C(=O)CNC(=O)[C@H](C(C)C)NC(=O)[C@H](CC(=O)O)NC1=O [Compound 9] (Picolinoyl-[dV]YC[Dab(iPr)]DVGPFC[3Pal]-NH2; disulfide 3-10) on hAM2 receptor (CALCRL:RAMP3) (Homo sapiens, UniProt O60896+Q16602).
RESULT: 351

QUERY: Output reported selectivity ratio CGRP/AM2 of the compound CC(C)[C@@H]1NC(=O)[C@H](CC(=O)O)NC(=O)[C@H](CCCNC(=N)N)NC(=O)[C@@H](NC(=O)[C@H](Cc2ccc(O)cc2)NC(=O)[C@H](NC(=O)c2ccc[nH]2)C(C)C)CSSC[C@@H](C(=O)N[C@@H](Cc2cccnc2)C(N)=O)NC(=O)[C@H](Cc2ccccc2)NC(=O)[C@@H]2CCCN2C(=O)CNC1=O [Compound 49] (Pyrrole2CO-[dV]YCRDVGPFC[3Pal]-NH2; disulfide 3-10) on hAM2 receptor (CALCRL:RAMP3) (Homo sapiens, UniProt O60896+Q16602).
RESULT: 461

Recorded values, source patent US9969775B2.
